Tested on: SF-539 CNS
Test: NCI-60 one-dose screen, 48 h (100 = growth as untreated, 0 = no growth, -100 = all killed)
Conditions: 10 µM
This is part of a sample that, as a whole, favours compounds with a hit. Of some 83,000 tested, about 20% had one in any assay. Activity calls are given as the source filed them. How the source made its calls: active means growth percent below 10; inactive means the rest.
Reported growth values are given for each entry in this list.

Solved cases below.
NC(C(=O)O)c1ccc([N+](=O)[O-])cc1 (stereo not given) ... 89.3% (inactive)
CC(=O)Nc1cccc(NC(C)=O)n1 ... 103% (inactive)
NC(=O)NC(=O)c1ccc(Cl)cc1 ... 104% (inactive)

Task: Given the compound CC1CC(O)C2C3(C)CCCC2(COC3=O)C12CCC1(CCOC1=O)O2 (stereo not given) , what is its reported growth?
Result: 101% (inactive)

Task: Would you kindly share the measured growth for Cc1c(O)cnc2nn(-c3ccccc3)c(=N)n12 ?
Result: 99.6% (inactive)
